Form field: pIC50 (one value per entry).
test system: HCV replicon 2B; experiment: microbe, parasite or virus in culture; format: cell-based, Hepatitis C virus (HCV); details: read-out: 2B IC50; HCV replicon 2B; Replicon Assay A
When answering, recall that pIC50 equals minus log10 of the concentration in mol/L, and write that number alone.

>>> measurement("COC(=O)NC(C(=O)N1[C@@H]2C[C@@H]2C[C@H]1c1ncc(-c2ccc3c(c2)cc2n3C(c3cc4ccccc4s3)Oc3cc(-c4cnc([C@@H]5CCCN5C(=O)[C@@H](NC(=O)OC)C(C)C)[nH]4)cc(F)c3-2)[nH]1)C1C[C@@H](C)O[C@@H](C)C1 (single isomer, unassigned) [Compound 646]")
9.76
>>> measurement("COC(=O)NC(C(=O)N1[C@@H]2C[C@@H]2C[C@H]1c1ncc(-c2ccc3c(c2)c(F)c2n3C(c3ccc(C4CC4)s3)Oc3cc(-c4cnc([C@@H]5CCCN5C(=O)[C@@H](NC(=O)OC)C(C)C)[nH]4)ccc3-2)[nH]1)C1C[C@@H](C)O[C@@H](C)C1 (single isomer, unassigned) [Compound 645]")
10.16
>>> measurement("COC(=O)N[C@H](C(=O)N1C2CC2C[C@H]1c1ncc(-c2cc(F)c3c(c2)OC(c2ccc(C4CC4)s2)n2c-3cc3cc(-c4cnc([C@@H]5CCCN5C(=O)[C@@H](NC(=O)OC)C5C[C@@H](C)O[C@@H](C)C5)[nH]4)ccc32)[nH]1)C(C)C (single isomer, unassigned) [Compound 555]")
9.71
>>> measurement("COC(=O)NC(C(=O)N1CCC[C@H]1c1ncc(-c2ccc3c(c2)cc2n3C(c3ccc(C4CC4)s3)Oc3cc(-c4cnc([C@@H]5C[C@H]6C[C@H]6N5C(=O)[C@@H](NC(=O)OC)C(C)C)[nH]4)cc(F)c3-2)[nH]1)C1C[C@@H](C)O[C@@H](C)C1 (single isomer, unassigned) [Compound 538]")
10.29

Here is another compound to look at.
For record COC(=O)NC(C(=O)N1[C@@H]2C[C@@H]2C[C@H]1c1ncc(-c2ccc3c(c2)c(F)c2n3C(c3ccc(C4CC4)s3)Oc3cc(-c4cnc([C@@H]5CCCN5C(=O)[C@@H](NC(=O)OC)C(C)C)[nH]4)cc(F)c3-2)[nH]1)C1CCOC(C)(C)C1 (single isomer, unassigned) [Compound 422] the listed pIC50 is 9.86
